Please go through the items and note down their AR agonism EC10.
# measurement.target: human androgen receptor (Homo sapiens, UniProt P10275)
# Construct: host or cells: Chinese hamster ovary (CHO) cells, AR-EcoScreen GR KO M1, stably transfected, glucocorticoid receptor knocked out
# Sequence (P10275 whole entry): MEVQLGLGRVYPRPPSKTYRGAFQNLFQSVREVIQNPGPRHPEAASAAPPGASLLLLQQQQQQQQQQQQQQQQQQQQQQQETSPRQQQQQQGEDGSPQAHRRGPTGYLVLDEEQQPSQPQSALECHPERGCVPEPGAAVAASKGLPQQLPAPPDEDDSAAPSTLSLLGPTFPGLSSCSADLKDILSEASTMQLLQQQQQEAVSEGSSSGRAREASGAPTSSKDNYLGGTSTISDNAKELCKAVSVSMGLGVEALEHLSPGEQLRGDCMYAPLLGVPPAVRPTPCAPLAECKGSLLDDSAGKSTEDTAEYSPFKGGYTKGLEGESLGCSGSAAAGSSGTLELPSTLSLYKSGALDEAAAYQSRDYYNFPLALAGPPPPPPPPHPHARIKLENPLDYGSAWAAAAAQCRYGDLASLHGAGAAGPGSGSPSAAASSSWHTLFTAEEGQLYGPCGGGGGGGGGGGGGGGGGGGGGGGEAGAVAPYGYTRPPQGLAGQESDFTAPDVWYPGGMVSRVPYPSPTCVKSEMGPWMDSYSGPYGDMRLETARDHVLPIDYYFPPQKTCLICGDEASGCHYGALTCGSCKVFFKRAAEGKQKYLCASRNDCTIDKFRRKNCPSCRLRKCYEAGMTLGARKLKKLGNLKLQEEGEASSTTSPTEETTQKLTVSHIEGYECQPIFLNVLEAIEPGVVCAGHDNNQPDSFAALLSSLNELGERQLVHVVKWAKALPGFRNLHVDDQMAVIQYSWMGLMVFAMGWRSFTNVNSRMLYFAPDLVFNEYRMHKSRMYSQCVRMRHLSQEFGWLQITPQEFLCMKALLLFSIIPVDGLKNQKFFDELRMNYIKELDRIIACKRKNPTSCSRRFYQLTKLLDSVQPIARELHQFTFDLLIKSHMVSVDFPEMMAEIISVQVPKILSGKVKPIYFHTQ
# Type: cell-based
# test.context: without exogenous MAS; initial concentration-range finding trials; 24 h
Numbers only, in nM.

Below: 2 molecules and their reported AR agonism EC10.
* CC(=O)O[C@@H]1C[C@]2(C)[C@@]3(CO)[C@H](O)C(=O)C(C)=C[C@H]3O[C@H]1[C@@]21CO1 | 1310
* CC1=C[C@H]2O[C@@H]3[C@H](O)C[C@](C)([C@@]2(CO)[C@H](O)C1=O)[C@]31CO1 | 830

Next up:
Q) Given CC(=O)OC[C@]12[C@H](O)C(=O)C(C)=C[C@H]1O[C@@H]1[C@H](O)C[C@@]2(C)[C@]12CO2 , state its recorded AR agonism EC10.
A) 770

###

# measurement.target: human androgen receptor (Homo sapiens, UniProt P10275)
# Construct: host or cells: Chinese hamster ovary (CHO) cells, AR-EcoScreen GR KO M1, stably transfected, glucocorticoid receptor knocked out
# Type: cell-based
# test.context: without exogenous MAS; initial concentration-range finding trials; 24 h
measurement.name: AR antagonism IC30

* C[C@H]1CCCC(=O)CCC/C=C/c2cc(O)cc(O)c2C(=O)O1 [ZEN, zearalenone] | 3.30 µM
* CC(=O)OC[C@]12[C@H](O)C(=O)C(C)=C[C@H]1O[C@@H]1[C@H](O)C[C@@]2(C)[C@]12CO2 [15-Ac-DON, 15-acetyl deoxynivalenol] | <LOD
* CC1=C[C@H]2O[C@@H]3[C@H](O)C[C@](C)([C@@]2(CO)[C@H](O)C1=O)[C@]31CO1 [DON, deoxynivalenol] | <LOD
* CC(=O)O[C@@H]1C[C@]2(C)[C@@]3(CO)[C@H](O)C(=O)C(C)=C[C@H]3O[C@H]1[C@@]21CO1 [3-Ac-DON, 3-acetyl deoxynivalenol] | <LOD

###

# System: estrogen receptor (ER)
# test.context: without exogenous MAS; initial concentration-range finding trials; 24 h
measurement.name: ER agonism EC10

• CC(=O)O[C@@H]1C[C@]2(C)[C@@]3(CO)[C@H](O)C(=O)C(C)=C[C@H]3O[C@H]1[C@@]21CO1 = 310,000 pM
• CC(=O)OC[C@]12[C@H](O)C(=O)C(C)=C[C@H]1O[C@@H]1[C@H](O)C[C@@]2(C)[C@]12CO2 = <LOD
• CC1=C[C@H]2O[C@@H]3[C@H](O)C[C@](C)([C@@]2(CO)[C@H](O)C1=O)[C@]31CO1 = <LOD
• C[C@H]1CCC[C@H](O)CCC/C=C/c2cc(O)cc(O)c2C(=O)O1 = 3.59 pM

Next up:
Q) Given C[C@H]1CCCC(=O)CCC/C=C/c2cc(O)cc(O)c2C(=O)O1 , state its recorded ER agonism EC10.
A) 30 to 40 pM
